// data source = paper PMC9574860

Biological target: PARK7 (Homo sapiens, UniProt Q99497)
Sequence (Q99497 whole entry): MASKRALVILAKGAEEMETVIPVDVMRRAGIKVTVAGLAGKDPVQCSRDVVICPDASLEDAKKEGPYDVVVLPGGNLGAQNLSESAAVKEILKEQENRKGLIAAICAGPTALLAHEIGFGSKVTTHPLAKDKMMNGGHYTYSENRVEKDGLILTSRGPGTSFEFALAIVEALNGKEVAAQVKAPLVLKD
Test: FP assay with Rhodamine110 probe JYQ-107 (IC50 and hit validation)
Format: binding
Parameters: GST (N, cleaved yes); made in house; host or cells: E. coli BL21(DE3) Rosetta2
Details: read-out: FP assay %Inhibiton (100 µM)
Reported property: inhibition at 100 µM
Number plus unit, in that order.

// worked examples, inhibition at 100 µM included
>  <Smiles string>
O=S(=O)(F)c1cccc(S(=O)(=O)Nc2cccnc2O)c1

>  <inhibition at 100 µM>
100%

$$$$
>  <Smiles string>
O=C1CCC(CC(=O)Nc2cccc(S(=O)(=O)F)c2)CC1

>  <inhibition at 100 µM>
0%

$$$$
>  <Smiles string>
Cn1c(=O)ccn(CC(=O)Nc2cccc(S(=O)(=O)F)c2)c1=O

>  <inhibition at 100 µM>
100%

$$$$
>  <Smiles string>
CCCc1nnc(NS(=O)(=O)c2cccc(S(=O)(=O)F)c2)o1

>  <inhibition at 100 µM>
100%

$$$$

Shifting focus to the compound that follows.
# lookup: inhibition at 100 µM of COc1ccc(NS(=O)(=O)c2ccc(S(=O)(=O)F)cc2)cn1
100%

----------
Target: PARK7 (Homo sapiens, UniProt Q99497)
Assay: DiFMUAc PARK7 activity assay
Type: biochemical
Design: GST (N, cleaved yes); made in house; host or cells: E. coli BL21(DE3) Rosetta2
Details: read-out: DiFMuAc assay %Inhibiton (37.5 µM)
// reported inhibition at 37.5 µM per item
Answer in %, number only, no unit symbol.

Recorded results for 4 compounds are shown here.
>  <Smiles string>
CCn1ncnc1NS(=O)(=O)c1cccc(S(=O)(=O)F)c1

>  <Uom>
%

>  <inhibition at 37.5 µM>
100

$$$$
>  <Smiles string>
CC(C)CC(=O)NNS(=O)(=O)c1cccc(S(=O)(=O)F)c1

>  <Uom>
%

>  <inhibition at 37.5 µM>
94.6

$$$$
>  <Smiles string>
CCCc1nnc(NS(=O)(=O)c2cccc(S(=O)(=O)F)c2)o1

>  <Uom>
%

>  <inhibition at 37.5 µM>
99.3

$$$$
>  <Smiles string>
O=S(=O)(F)c1cccc(S(=O)(=O)Nc2cccnc2O)c1

>  <Uom>
%

>  <inhibition at 37.5 µM>
99.2

$$$$

Switching to the query record.
// lookup inhibition at 37.5 µM for O=C(NNS(=O)(=O)c1cccc(S(=O)(=O)F)c1)C1CCC1
98

----------
Reported pIC50 by item:
Biological target: UniProt P09936
Sequence (P09936 whole entry, species assumed): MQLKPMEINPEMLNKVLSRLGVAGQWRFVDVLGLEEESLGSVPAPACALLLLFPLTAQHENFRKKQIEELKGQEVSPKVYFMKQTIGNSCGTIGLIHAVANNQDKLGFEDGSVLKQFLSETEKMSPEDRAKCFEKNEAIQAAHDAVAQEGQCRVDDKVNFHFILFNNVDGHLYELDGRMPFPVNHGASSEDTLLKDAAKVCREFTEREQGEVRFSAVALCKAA
Test: UCHL1 activity assay (Ub-Rho-Morpholine or Ub-AMC substrate)
Format: biochemical
Conditions: UCHL1 1 nM, 1 h preincubation; Figure 3E; read-out: UCHL1 IC50
Kindly note that pIC50 refers to -log10 of the concentration in mol/L and answer with the value alone.

>  <Compound>
N#CN1CC[C@H](C(=O)Nc2nc3c(s2)CN(C(=O)CN=[N+]=[N-])CC3)C1 [8RK64, reference compound]

>  <Reported property>
pIC50

>  <Reported result>
6.64

$$$$

What pIC50 value was documented for this compound, N#CN1CC[C@@H](C(=O)Nc2nc3c(s2)CN(C(=O)CN=[N+]=[N-])CC3)C1 [JYQ-88] ?
4.95

----------
Target: UniProt Q99497
Experiment: FP assay with Rhodamine110 probe JYQ-107 (IC50 and hit validation)
Format: binding
Set-up: GST (N, cleaved yes); made in house; host or cells: E. coli BL21(DE3) Rosetta2
Conditions: read-out: FP assay %Inhibiton (100 µM)
Reported property: inhibition at 100 µM (%)
Answer in %, number only, no unit symbol.

As a guide, the following entries are already answered.
>  <Smiles string>
CC(C)CC(=O)NNS(=O)(=O)c1cccc(S(=O)(=O)F)c1

>  <Reported result>
100

$$$$
>  <Smiles string>
CCn1ncnc1NS(=O)(=O)c1cccc(S(=O)(=O)F)c1

>  <Reported result>
100

$$$$

For the next question, use this compound.
Provide value of inhibition at 100 µM for this record tested with UniProt Q99497: O=C(NNS(=O)(=O)c1cccc(S(=O)(=O)F)c1)C1CCC1
100
